# assay-overview: In vitro stability in human whole blood
# Type: in vitro ADME
# assay-conditions: male, whole blood diluted to 50% with PBS, pH 7.4, human whole blood diluted to 50% with PBS, 5 μM, 37° C., 240-minute incubation, read-out: Compound Half-life
metric: half-life at 5 µM

Reference set, count: 2
CN(C/C=C/C(=O)N1CCN(c2nc(OC[C@@H]3CCCN3C)nc3c2CCN(c2cccc4cccc(Cl)c24)C3)C[C@@H]1CC#N)CC(F)(F)F : > 33.3 h
C=C(OC)C(=O)N1CCN(c2nc(OC[C@@H]3CCCN3C)nc3c2CCN(c2cccc4cccc(Cl)c24)C3)C[C@@H]1CC#N : > 33.3 h

I have this compound here, C=CC(=O)N1CCN(c2nc(OC[C@@H]3CCCN3C)nc3c2CCN(c2cccc4cccc(C)c24)C3)C[C@@H]1CC#N , and I need its recorded half-life at 5 µM.
3.33 to 16.7 h

I have this compound here, CN1CCC[C@H]1COc1nc2c(c(N3CCN(C(=O)/C=C/CN4CCOCC4)[C@@H](CC#N)C3)n1)CCN(c1cccc3cccc(Cl)c13)C2 , and I need its recorded half-life at 5 µM.
16.7 to 33.3 h

I have this compound here, CN1CCC[C@H]1COc1nc2c(c(N3CCN(C(=O)/C=C/C(F)F)[C@@H](CC#N)C3)n1)CCN(c1cccc3cccc(Cl)c13)C2 , and I need its recorded half-life at 5 µM.
≤ 3.33 h

I have this compound here, CN1CCC[C@H]1COc1nc2c(c(N3CCN(C(=O)/C=C/CN4CCC(F)C4)[C@@H](CC#N)C3)n1)CCN(c1cccc3cccc(Cl)c13)C2 (stereo partly shown) , and I need its recorded half-life at 5 µM.
> 33.3 h

I have this compound here, CN(C)C/C=C/C(=O)N1CCN(c2nc(OC[C@@H]3CCCN3C)nc3c2CCN(c2cccc4ccccc24)C3)C[C@@H]1CC#N , and I need its recorded half-life at 5 µM.
> 33.3 h

----------
# system-name: KRas G12C (Homo sapiens, UniProt P01116, G12C)
# Sequence (P01116 1-188 isoform P01116-2 G12C): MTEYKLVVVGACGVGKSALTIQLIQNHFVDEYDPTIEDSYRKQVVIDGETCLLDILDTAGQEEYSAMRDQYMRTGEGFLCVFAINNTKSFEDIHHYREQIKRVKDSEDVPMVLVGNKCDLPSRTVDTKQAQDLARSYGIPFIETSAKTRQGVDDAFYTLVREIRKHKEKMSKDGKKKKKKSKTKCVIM
# assay-overview: Cellular inhibition of KRas G12C measured by Phospho-ERK in NCI-H358 cells
# Format: cell-based
# assay-conditions: pERK(Thr202/Tyr204) normalized with GAPDH, NCI-H358 cells, 3 hours; read-out: IC50
metric: IC50

Reference set, count: 5
C=C(F)C(=O)N1CCN(c2nc(OC[C@@H]3C[C@@H](F)CN3C)nc3c2CCN(c2cccc4cccc(Cl)c24)C3)C[C@@H]1CC#N : 0.1 to 1000 nM
C=CC(=O)N1CCN(c2nc(OC(C)CN(C)C)nc3c2CCN(c2cccc4ccccc24)C3)CC1 (stereo not shown) : > 1000 nM
C=CC(=O)N1CCN(c2nc(OCC3CCCN(C)C3)nc3c2CCN(c2cc(O)cc4ccccc24)C3)CC1 (stereo not shown) : 0.1 to 1000 nM
C=C(F)C(=O)N1CCN(c2nc(OC[C@@H]3CCN(C)C3)nc3c2CCN(c2cccc4cccc(Cl)c24)C3)C[C@@H]1CC#N : 0.1 to 1000 nM
C=CC(=O)N1CCN(c2nc(OC[C@@H]3C[C@@H](F)CN3C)nc3c2CCN(c2cccc4ccccc24)C3)C[C@@H]1CC#N : 0.1 to 1000 nM

I have this compound here, C=CC(=O)N1CCN(c2nc(OC[C@@H]3CCCN3C)nc3c2CCN(c2ccnc4ccccc24)C3)CC1CC#N (stereo partly shown) [Example 278] , and I need its recorded IC50.
0.1 to 1000 nM

I have this compound here, Cc1cccc(N2CCc3c(nc(OC[C@@H]4CCCN4C)nc3N3CCN(C(=O)C4=CCC4)[C@@H](CC#N)C3)C2)c1C , and I need its recorded IC50.
> 1000 nM

I have this compound here, C=CC(=O)N1CCN(c2nc(OCCCN3CCN(C)CC3)nc3c2CCN(c2cc(O)cc4ccccc24)C3)CC1 , and I need its recorded IC50.
0.1 to 1000 nM

I have this compound here, C=CC(=O)N1CCN(c2nc(OC[C@@H]3CCCN3C)nc3c2CCN(c2cccc4ccc(OC)cc24)C3)CC1CC#N (stereo partly shown) [Example 288] , and I need its recorded IC50.
> 1000 nM

I have this compound here, C=C(F)C(=O)N1CCN(c2nc(OC[C@H]3C[C@@H](F)CN3C)nc3c2CCN(c2cccc4cccc(Cl)c24)C3)C[C@@H]1CC#N , and I need its recorded IC50.
0.1 to 1000 nM

I have this compound here, Cc1cccc2cccc(N3CCc4c(nc(OC[C@@H]5CC(F)(F)CN5C)nc4N4CCN(C(=O)/C=C/CF)[C@@H](CC#N)C4)C3)c12 [Example 529] , and I need its recorded IC50.
0.1 to 1000 nM

I have this compound here, C=CC(=O)N1CCN(c2nc(OC[C@@H]3CCCN3C)nc3c2CCN(c2cnccc2C2CC2)C3)C[C@@H]1CC#N , and I need its recorded IC50.
0.1 to 1000 nM

I have this compound here, COC/C=C/C(=O)N1CCN(c2nc(OC[C@@H]3CCCN3C)nc3c2CCN(c2cccc4cccc(C)c24)C3)C[C@@H]1CC#N , and I need its recorded IC50.
0.1 to 1000 nM

----------
Recorded IC50 for the following molecules
# system-name: KRas G12C (Homo sapiens, UniProt P01116, G12C)
# assay-overview: Cellular inhibition of KRas G12C measured by Phospho-ERK in NCI-H358 cells
# Assay type: cell-based
# assay-conditions: pERK(Thr202/Tyr204) normalized with GAPDH, NCI-H358 cells, 3 hours; read-out: IC50

C=CC(=O)N1CCN(c2nc(OC[C@@H]3CCN(C)C3)nc3c2CCN(c2ccccc2C(F)(F)F)C3)CC1CC#N (stereo partly drawn) [Example 281] : 0.1 to 1000 nM
C=CC(=O)N1CCN(c2nc(O[C@H](C)CN(C)C)nc3c2CCN(c2c(C)ccc(F)c2O)C3)CC1 : > 1000 nM

Kindly consider the entry below.
I have this molecule here, C=CC(=O)N1CCN(c2nc(O[C@H](C)CN(C)C)nc3c2CCN(c2cccc4ccccc24)C3)CC1CC#N (stereo partly drawn) , and I need its recorded IC50.
> 1000 nM

----------
# system-name: KRas G12C (Homo sapiens, UniProt P01116, G12C)
# assay-overview: Cellular inhibition of KRas G12C measured by Phospho-ERK in NCI-H358 cells
# Type: cell-based
# assay-conditions: pERK(Thr202/Tyr204) normalized with GAPDH, NCI-H358 cells, 3 hours; read-out: IC50
metric: IC50

C=CC(=O)N1CCN(c2nc(OC[C@@H]3CCCN3C)nc3c2CCN(c2ncccc2C(F)(F)F)C3)CC1CC#N (stereo partly shown) [Example 241] : > 1000 nM
C=C(Cl)C(=O)N1CCN(c2nc(OC[C@@H]3CCCN3C)nc3c2CCN(c2cccc(C)c2C)C3)C[C@@H]1CC#N [Example 473] : 0.1 to 1000 nM
C=CC(=O)N1CCN(c2nc(OC[C@@H]3CCCN3C)nc3c2CCN(c2ccncc2C)C3)C[C@@H]1CC#N [Example 345] : > 1000 nM

Missing value: IC50, KRas G12C (Homo sapiens, UniProt P01116, G12C), entry C=CC(=O)N1CCN(c2nc(OC[C@@H]3CCCN3C)nc3c2CCN(c2ccncc2C(F)(F)F)C3)CC1CC#N (stereo partly shown) [Example 239] . Fill in?
> 1000 nM

Missing value: IC50, KRas G12C (Homo sapiens, UniProt P01116, G12C), entry C=CC(=O)N1CCN(c2nc(OC[C@H]3CCCN3C)nc3c2CCN(c2cccc4ccccc24)C3)CC1CC#N (stereo partly shown) [Example 183] . Fill in?
0.1 to 1000 nM

Missing value: IC50, KRas G12C (Homo sapiens, UniProt P01116, G12C), entry CN1CCC[C@H]1COc1nc2c(c(N3CCN(C(=O)/C=C/CN4CCCC4)[C@@H](CC#N)C3)n1)CCN(c1cccc(Cl)c1C(F)(F)F)C2 [Example 347] . Fill in?
0.1 to 1000 nM

Missing value: IC50, KRas G12C (Homo sapiens, UniProt P01116, G12C), entry CN(C/C=C/C(=O)N1CCN(c2nc(OC[C@@H]3CCCN3C)nc3c2CCN(c2cccc4cccc(Cl)c24)C3)C[C@@H]1CC#N)CC(F)(F)F [Example 482] . Fill in?
0.1 to 1000 nM

----------
# system-name: KRas G12C (Homo sapiens, UniProt P01116, G12C)
# assay-overview: Cellular inhibition of KRas G12C measured by Phospho-ERK in NCI-H358 cells
# Type: cell-based
# assay-conditions: pERK(Thr202/Tyr204) normalized with GAPDH, NCI-H358 cells, 3 hours; read-out: IC50
metric: IC50

I have this molecule here, C=CC(=O)N1CCN(c2nc(OCCCN3CCOCC3)nc3c2CCN(c2cc(O)cc4ccccc24)C3)CC1 [Example 74] , and I need its recorded IC50.
0.1 to 1000 nM

I have this molecule here, C=CC(=O)N1CCN(c2nc(O[C@@H]3CCCN(C)C3)nc3c2CCN(c2cc(O)cc4ccccc24)C3)CC1 [Example 67] , and I need its recorded IC50.
0.1 to 1000 nM
